# assayed-target: T1, recombinant C-terminally truncated RSV (A2 strain) F protein (RSV (A2 strain), UniProt P03420 26-524)
# T1 construct: extracellular domain; also called truncated F protein; extracellular domain of the F protein from RSV A2
# T1 sequence (P03420 26-109, chain 1 of 2): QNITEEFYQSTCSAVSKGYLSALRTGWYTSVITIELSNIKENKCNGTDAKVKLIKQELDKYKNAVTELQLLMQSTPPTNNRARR
# T1 sequence (P03420 137-524, chain 2 of 2): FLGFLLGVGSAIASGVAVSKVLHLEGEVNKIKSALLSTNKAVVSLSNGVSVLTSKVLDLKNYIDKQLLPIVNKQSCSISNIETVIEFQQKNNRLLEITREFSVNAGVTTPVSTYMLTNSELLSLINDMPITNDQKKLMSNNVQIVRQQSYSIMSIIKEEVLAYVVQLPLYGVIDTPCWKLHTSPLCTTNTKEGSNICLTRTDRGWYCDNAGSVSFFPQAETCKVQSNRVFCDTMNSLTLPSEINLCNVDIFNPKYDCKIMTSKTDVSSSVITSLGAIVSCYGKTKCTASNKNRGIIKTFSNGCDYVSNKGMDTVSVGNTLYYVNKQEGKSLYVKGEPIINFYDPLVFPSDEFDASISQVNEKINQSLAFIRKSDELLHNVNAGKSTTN
# run-description: SPR (BIAcore), Fab over immobilised F
reported-endpoint: pKd
One number for each entry, as −log10 of the molar value.

Entry under review: S52Y Fab (Fab, name in Kabat numbering, V domains shown) VH: QVTLRESGPALVKPTQTLTLTCTFSGFSLSTSGMSVGWIRQPPGKALEWLADIWWDDKKDYNPSLKSRLTISKDTSKNQVVLKVTNMDPADTATYYCARSMITNWYFDVWGQGTTVTVSS VL: DIQMTQSPSTLSASVGDRVTITCSASSSVGYMHWYQQKPGKAPKLLIYDTYKLASGVPSRFSGSGSGTEFTLTISSLQPDDFATYYCFQGSGYPFTFGGGTKVEIK . Reported pKd?
9.13

# ---- query binder ----
Entry under review: palivizumab Fab (papain cleavage of palivizumab IgG) (Fab, V domains shown, also called Palivizumab^a) VH: QVTLRESGPALVKPTQTLTLTCTFSGFSLSTSGMSVGWIRQPPGKALEWLADIWWDDKKDYNPSLKSRLTISKDTSKNQVVLKVTNMDPADTATYYCARSMITNWYFDVWGAGTTVTVSS VL: DIQMTQSPSTLSASVGDRVTITCKCQLSVGYMHWYQQKPGKAPKLLIYDTSKLASGVPSRFSGSGSGTEFTLTISSLQPDDFATYYCFQGSGYPFTFGGGTKLEIK . Reported pKd?
8.22
